Test system: TE-12;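 further: growth inhibition of TE-12 cells, read out by a cell viability assay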
EXPERIMENT NOTES: cells
Format: functional, cell-based
TEST SETTINGS: Homo sapiens
Description: SANGER: Inhibition of human TE-12 cell growth in a cell viability assay.
pIC50: −log10 of the molar value.
# pIC50 listing for each entry below

• CCc1nc(N)nc(N)c1-c1ccc(Cl)cc1 = < 4.70
• O=C(NOCC1CC1)c1ccc(F)c(F)c1Nc1ccc(I)cc1Cl = 5.04

Identify measured pIC50 obtained with TE-12 for O=C(c1cc(Cc2n[nH]c(=O)c3ccccc23)ccc1F)N1CCN(C(=O)C2CC2)CC1 . < 5.30

Identify measured pIC50 obtained with TE-12 for CNC(=O)c1cc(Oc2ccc(NC(=O)Nc3ccc(Cl)c(C(F)(F)F)c3)cc2)ccn1 . < 5.40

Identify measured pIC50 obtained with TE-12 for COc1cc(F)c(F)c(Nc2ccc(I)cc2F)c1NS(=O)(=O)C1(CC(O)CO)CC1 (centres undefined) . < 5.30

Identify measured pIC50 obtained with TE-12 for Cn1cc(C2=C(c3ccc(Cl)cc3Cl)C(=O)NC2=O)c2ccccc21 . < 5.00

Identify measured pIC50 obtained with TE-12 for COc1cc([C@@H]2c3cc4c(cc3[C@@H](O[C@@H]3O[C@@H]5CO[C@@H](C)O[C@H]5[C@H](O)[C@H]3O)[C@H]3COC(=O)[C@H]23)OCO4)cc(OC)c1O [ETOPOSIDE] . < 4.80

Identify measured pIC50 obtained with TE-12 for C=C1C(=O)O[C@@H]2C3O[C@]3(C)CC/C=C(\C)CC[C@@H]12 (some centres undefined) . < 5.30

Identify measured pIC50 obtained with TE-12 for O=C(/C=C/c1ccccc1)NC(NC(=S)Nc1cccc2cccnc12)C(Cl)(Cl)Cl (centres undefined) . 4.95

Identify measured pIC50 obtained with TE-12 for CCOc1nc(NC(=O)Cc2cc(OC)ccc2OC)cc(N)c1C#N . < 5.00

Identify measured pIC50 obtained with TE-12 for COc1ccc(-c2ccc3c(N4CCOC[C@@H]4C)nc(N4CCOC[C@@H]4C)nc3n2)cc1CO . 5.85

Identify measured pIC50 obtained with TE-12 for CCC(=O)N1CCN(c2ccc(-n3c(=O)ccc4cnc5ccc(-c6cnc7ccccc7c6)cc5c43)cc2C(F)(F)F)CC1 . 7.59

Identify measured pIC50 obtained with TE-12 for CC(=O)O[C@@H]1[C@@H](OC(C)=O)[C@@H](O)[C@H](Oc2c(-c3ccc(O)cc3)oc3cc(O)cc(O)c3c2=O)O[C@H]1C . < 5.00

Identify measured pIC50 obtained with TE-12 for Cc1cnc(-c2cnc(NCCNc3ccc(C#N)cn3)nc2-c2ccc(Cl)cc2Cl)[nH]1 . < 5.59

====

Test system: NCI-H1882;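 further: growth inhibition of the cell line, determined with a viability assay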
EXPERIMENT NOTES: cells
Type: functional, cell-based
TEST SETTINGS: Homo sapiens
Description: SANGER: Inhibition of human NCI-H1882 cell growth in a cell viability assay.
ENDPOINT NAME: IC50

* Cc1cc(Nc2cc(N3CCN(C)CC3)nc(Sc3ccc(NC(=O)C4CC4)cc3)n2)n[nH]1 | > 2000 nM
* COc1cc([C@@H]2c3cc4c(cc3[C@@H](O[C@@H]3O[C@@H]5CO[C@@H](C)O[C@H]5[C@H](O)[C@H]3O)[C@H]3COC(=O)[C@H]23)OCO4)cc(OC)c1O [ETOPOSIDE] | 2680 nM

// below: IC50 requested for another compound
Assign IC50 to the following record: C=CCc1cccc(/C=N/NC(=O)CN2CCN(Cc3ccccc3)CC2)c1O > 2560 nM
